Data origin, for the record: PubChem BioAssay AID841

EXPERIMENT SUMMARY: blockers of measles virus-induced cell death – single point, MLSMR library, absorbance, measles RdRp inhibitor project, primary screen (AID 841)
RUN CONDITIONS: Measles virus-infected cells, CPE protection, at 4 µM, stronger effect = higher value
In all, about 140,000 compounds went through this assay and about 2,100 (1.5%) were called active. The list comes from a sample in which actives are over-represented; it also holds close analogues and randomly drawn compounds.
Bucketed by reported protection (pct of control), buckets being lower band: < 6%; central band: ≥ 6% and < 20%; upper band: ≥ 20%

1) C/C(=N/NC(=S)Nc1ccccc1)c1ccc2c(c1)OCO2    upper band
2) COc1cc(OC)cc(C(=O)Nc2ncc3c(n2)CC(C)(C)CC3=O)c1    central band
3) CCOc1ccc(NC(=O)c2ccc(CSc3nnnn3C)cc2)cc1    central band
4) Cc1c(C(=O)Nc2cccc(Cl)c2)cn2c(nc3ccccc32)c1C#N    central band
5) COc1ccc(NC(=O)COC(=O)Cn2c(C)nc3ccccc32)cc1OC    upper band
6) CC(=O)c1sc2nc(SCC(=O)N3CCCCC3)[nH]c(=O)c2c1C    upper band
7) Cn1ncc2c(NNC(=O)Cc3cccc4ccccc34)ncnc21    upper band
8) CCOc1cc(C(=O)Nc2ncccn2)cc(OCC)c1OCC    lower band
9) O=C(CSc1ccc(C(F)(F)F)cc1[N+](=O)[O-])NCCOc1ccccc1    central band
10) CC(=O)N1CCN(CCN=CC2=C(O)CC(C)(C)CC2=O)CC1    lower band
11) C=CCNC(=O)CSc1nc2sc(C)c(C)c2c(=O)[nH]1    lower band
12) COc1cc(C2CC(=O)c3cnc(NC(C)=O)nc3C2)cc(OC)c1OC (centres undefined)    upper band
13) Cc1[nH]c2ccccc2c1C(=O)COC(=O)c1c(-c2ccccc2)noc1C    lower band
14) COc1ccc(S(=O)(=O)Nc2ccc(F)cc2)c(C)c1C    upper band
15) C=CCc1ccccc1OCC(=O)N/N=C/c1ccccc1OCC    lower band
16) Cc1ccc(N/C=C/C(=O)c2ccccc2)cc1C    central band
17) CCOc1cc(C(=O)Nc2c(C)ccc3nsnc23)cc(OCC)c1OCC    upper band
18) Cc1ccc(-c2nn(-c3ccccc3)cc2/C=N/NC(=O)c2ccc3c(c2)OCO3)cc1    central band
19) O=c1cc(CSc2ccc(Cl)cc2)nc(N2CCOCC2)[nH]1    central band
20) Cc1ccc2nsnc2c1NC(=O)c1ccccc1[N+](=O)[O-]    lower band
21) CCCOC(=O)c1[nH]c2c(c1C)C(=O)CC(c1cc(OC)c(OC)c(OC)c1)C2 (centres undefined)    lower band
22) COC(=O)C(C)Oc1ccc2c(-c3cccc([N+](=O)[O-])c3)cc(=O)oc2c1 (centres undefined)    lower band
23) Cc1cccc(NC(=O)COc2ccc(Br)cc2C)n1    central band
24) O=C(Nc1ccccc1Cl)c1ccccc1S(=O)(=O)c1ccccc1[N+](=O)[O-]    lower band
25) Cn1ncc2c(Nc3cccc4ccccc34)ncnc21    lower band
26) O=C(CSc1nc2c(cnn2-c2ccc(F)cc2)c(=O)[nH]1)N1CCCCCC1    central band
27) Cc1cc(C(=O)CSc2nc(N)cc(=O)[nH]2)c(C)n1-c1cccc(F)c1    upper band
28) COc1cc(OC)c(C(=O)Nc2ccccc2-c2ccccc2)cc1OC    upper band
29) Cc1ccnc(NC(=O)Cn2ccc([N+](=O)[O-])n2)c1    central band
30) CN(C)/C(=N\OC(=O)c1ccccc1)c1nonc1N    central band
31) CCn1c2ccccc2c2cc(NC(=O)COC(=O)c3ccccc3Br)ccc21    central band
32) Cc1nc2cc(NC(=O)CSc3nc4c(C)cccc4cc3C#N)ccc2s1    central band
33) CC1(C)CCc2nc(SCc3ccccc3)c(C#N)cc2C1    central band
